- EXPERIMENT_NOTES: Inhibition of human topoisomerase 2 assessed as reduction in decatenatation of kinetoplast DNA incubated for 15 mins by ethidium bromide staining based gel electrophoresis method
MEASURE_NAME: pIC50
Formally, pIC50 is defined as -log10 of the concentration c, with c in mol/L.

Which pIC50 reading was recorded for the compound COc1cc([C@@H]2c3cc4c(cc3[C@@H](O[C@@H]3O[C@@H]5CO[C@@H](C)O[C@H]5[C@H](O)[C@H]3O)[C@H]3COC(=O)[C@H]23)OCO4)cc(OC)c1O [ETOPOSIDE] ? 4.22

----------
- MEASURED_ON: DNA gyrase (Escherichia coli, UniProt P0AES4+P0AES6)
- EXPERIMENT_NOTES: Inhibition of Escherichia coli DNA gyrase subunit GyrA/GyrB supercoiling activity using relaxed pBR322 DNA incubated for 15 mins by ethidium bromide staining based gel electrophoresis method
MEASURE_NAME: IC50 (nM)
Form entry: value (nM) — number only.

Dear colleague, I am looking for the recorded IC50 of the following molecule: COc1c(N2CC[C@@H](CN)C2)c(F)cc2c1N(C1CC1)CC(C(=O)O)C2=O (stereo partly specified) 120
